Data origin, for the record: patent US10188106B2

Exercise: state measured Efficacy in % for each of the molecules provided.
System: Venturia inaequalis
Assay: Venturia test (apples)/protective
Assay type: in vivo
Conditions: apple plants, protective spray, rate of application 100 ppm, evaluated 10 days after inoculation
Protocol: Solvent: 24.5 parts by weight of acetone • 24.5 parts by weight of dimethylacetamide Emulsifier: 1 part by weight of alkylaryl polyglycol ether To produce a suitable preparation of active compound, 1 part by weight of active compound is mixed with the stated amounts of solvent and emulsifier, and the concentrate is diluted with water to the desired concentration. […] The test is evaluated 10 days after the inoculation. […]
Counter-ions that a name gives are not always drawn.
Please don't drop the unit; write it after the number.

Exam item: Need Efficacy in %, item CCCOC(=O)NCCCN(C)C [propamocarb-HCl]
Marked response: 4%

Exam item: Value lookup for Efficacy in %; key = CCCCCOC(=O)Nc1cccc(CON=C(c2ccccc2)c2nnnn2C)n1
Marked response: 8%

Exam item: // lookup Efficacy in % for CCNC(=O)NC(=O)/C(C#N)=N/OC
Marked response: 23%

Exam item: Which Efficacy in % reading was recorded for the molecule CN/C(=N\[N+](=O)[O-])NCc1cnc(Cl)s1 ?
Marked response: 66%

Exam item: # input molecule: O=[N+]([O-])NC1=NCCN1Cc1ccc(Cl)nc1 ; wanted: its Efficacy in %
Marked response: 4%
